Read-out: cysteine-aspartic acid protease (CASP8), CASP8 (gene 841)
Test: LTEA_HepaRG_CASP8: Life Technologies and Expression Analysis (LTEA) Assay for cysteine-aspartic acid protease (CASP8) using HepaRG (AID 2283480)
Conditions: mRNA level, 48 h; actives raise or lower the signal
Protocol: LTEA_HepaRG is a cell based, multiplexed-readout assay that uses HepaRG, a human liver cell line, with measurements taken at 48 hours after chemical dosing on a 96-well plate.LTEA_HepaRG_CASP8 is one of 102 assay component(s) measured in the LTEA HepaRG cell culture assay. It is a marker of Cell proliferation, survival, death.Data from the assay component LTEA_HepaRG_CASP8 was analyzed into 1 endpoint. […]
Active and inactive are the calls of the source. The calls were made as follows: active = hit-call score of the fitted dose curve at least 0.9, where 1 is the maximum; inactive = score below 0.9.
Response enum: active, inactive

Would you please look over these solved cases?
CN(C)C(=S)SSC(=S)N(C)C: inactive
COC(=O)C=C(C)OP(=O)(OC)OC: inactive
CCNc1nc(Cl)nc(NC(C)C)n1: inactive
COC(=O)N(OC)c1ccccc1COc1ccn(-c2ccc(Cl)cc2)n1: active
CCCCC(CC)COC(=O)c1ccccc1C(=O)OCC(CC)CCCC (stereo not drawn): inactive
CCCCNC(=O)OCC#CI: inactive
CCOC(=O)C(Cl)Cc1cc(-n2nc(C)n(C(F)F)c2=O)c(F)cc1Cl (stereo not drawn): inactive
CCc1nn(C)c(C(=O)NCc2ccc(C(C)(C)C)cc2)c1Cl: active
O=C(O)COc1nc(Cl)c(Cl)cc1Cl: inactive
COc1ccc(C(c2ccc(OC)cc2)C(Cl)(Cl)Cl)cc1: inactive

Recorded call for "CON(C)C(=O)Nc1ccc(Cl)c(Cl)c1" ?
inactive

Recorded call for "C=CCC1=C(C)[C@@H](OC(=O)[C@@H]2[C@@H](C=C(C)C)C2(C)C)CC1=O" ?
inactive

Recorded call for "CCCCOC(=O)c1ccccc1C(=O)OCCCC" ?
inactive

###

test: Tanguay_ZF_120hpf_AXIS_legacy: (Legacy) Oregon State University Tanguay Lab 120 Hour Post-fertilization zebrafish Assay for Body Axis Malformation (AID 2283635)
Inconclusive results are not listed. The source made the active and inactive calls. Rule for the calls: active = hit-call score of the fitted dose curve at least 0.9, where 1 is the maximum; inconclusive = response in the unintended direction; inactive = score below 0.9.
Response enum: active, inactive

Recorded call for "CC1=C(C(=O)Nc2ccccc2)SCCO1" ?
inactive

Recorded call for CCCCC(CC)COC(=O)c1ccccc1C(=O)OCC(CC)CCCC (stereo not given) ?
inactive

Recorded call for "CCOc1cc(Oc2ccc(C(F)(F)F)cc2Cl)ccc1[N+](=O)[O-]" ?
inactive

###

test: BSK_3C_SRB: Viability Assessment in the BioMAP Diversity Plus: 3C Assay (AID 2283023); conditions: primary human endothelial cells (HUVEC);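 also: cells read 24 h after compound dosing; fitted both ways against DMSO so a hit may be signal rise or drop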
The source made the active and inactive calls. Rule for the calls: active = hit-call score of the fitted dose curve at least 0.9, where 1 is the maximum; inactive = score below 0.9.
Response enum: y = active, n = inactive

Cc1cc(Cl)ccc1OCC(=O)O: n
CCCCNC(=O)n1c(NC(=O)OC)nc2ccccc21: y
CCON=C(CC)C1=C(O)CC(c2c(C)cc(C)cc2C)CC1=O (centres undefined): n
O=C(O)c1nc(Cl)ccc1Cl: n
COc1nc(C)nc(NC(=O)NS(=O)(=O)c2ccccc2CCC(F)(F)F)n1: n
CCNc1nc(Cl)nc(NCC)n1: n
C#CCOS(=O)OC1CCCCC1Oc1ccc(C(C)(C)C)cc1 (centres undefined): y
Cc1c(F)c(F)c(COC(=O)C2C(/C=C(\Cl)C(F)(F)F)C2(C)C)c(F)c1F (centres undefined): y

Recorded call for C=CC1(C)OC(=O)N(c2cc(Cl)cc(Cl)c2)C1=O (centres undefined) ?
n

Recorded call for "Cc1ccc(-c2c(Cl)nc(C#N)n2S(=O)(=O)N(C)C)cc1" ?
y

Recorded call for N#Cc1nn(-c2c(Cl)cc(C(F)(F)F)cc2Cl)c(N)c1S(=O)C(F)(F)F (centres undefined) ?
y

Data origin: PubChem BioAssay (EPA / NIEHS)
